- Test system: Cit. freundii GN 99
- Test: Minimum Inhibitory Concentration, agar dilution, Cit. freundii GN 99
- Type: cell-based
- Condition: Citrobacter freundii, GN99; Cit. freundii GN 99; agar dilution; read-out: Minimum Inhibitory Concentration
Below is a list of entries, each paired with its recorded MIC value.
Your answer should be a plain number; it is taken to be in µg/mL.

Cc1nnc(SCC2=C(C(=O)O)N3C(=O)C(NC(=O)Cc4csc(=N)n4O)C3SC2)s1 (stereo not shown) [Example 4]: 0.78
N=c1scc(CC(=O)NC2C(=O)N3C(C(=O)O)=C(CSc4nnnn4CCO)CSC23)n1O (stereo not shown) [Example 17]: 0.39
O=C(Cc1cccs1)N[C@@H]1C(=O)N2C(C(=O)[O-])=C(C[n+]3ccccc3)CS[C@H]12 [Cephaloridine, reference compound]: 50
Cc1nsc(SCC2=C(C(=O)O)N3C(=O)C(NC(=O)Cc4csc(=N)n4O)C3SC2)n1 (stereo not shown) [Example 15]: 0.78
Cn1nnnc1SCC1=C(C(=O)O)N2C(=O)C(NC(=O)Cc3csc(=N)n3O)C2SC1 (stereo not shown) [Example 5]: 0.39

I am curious: what MIC value has been reported for N=c1scc(CC(=O)NC2C(=O)N3C(C(=O)O)=C(CSc4nnc(C(F)(F)F)s4)CSC23)n1O (stereo not shown) [Example 16] ? 0.78

I am curious: what MIC value has been reported for N=c1scc(CC(=O)NC2C(=O)N3C(C(=O)[O-])=C(C[n+]4ccc(C(N)=O)cc4)CSC23)n1O (stereo not shown) [Example 10] ? 1.56

###

Below is a list of entries, each paired with its recorded MIC value.
- Test system: K. pneumoniae DT
- Test: Minimum Inhibitory Concentration, agar dilution, K. pneumoniae DT
- Format: cell-based
- Condition: Klebsiella pneumoniae; K. pneumoniae DT; agar dilution; read-out: Minimum Inhibitory Concentration
Your answer should be a plain number; it is taken to be in µg/mL.

Cc1nnc(SCC2=C(C(=O)O)N3C(=O)C(NC(=O)Cc4csc(=N)n4O)C3SC2)o1 (stereo not drawn) [Example 6]: 0.1
N=c1scc(CC(=O)NC2C(=O)N3C(C(=O)O)=C(CSc4nnnn4CCO)CSC23)n1O (stereo not drawn) [Example 17]: 0.05
Cc1nsc(SCC2=C(C(=O)O)N3C(=O)C(NC(=O)Cc4csc(=N)n4O)C3SC2)n1 (stereo not drawn) [Example 15]: 0.1
Cc1nnc(SCC2=C(C(=O)O)N3C(=O)C(NC(=O)Cc4csc(=N)n4O)C3SC2)s1 (stereo not drawn) [Example 4]: 0.05
CC(=O)OCC1=C(C(=O)O)N2C(=O)C(NC(=O)Cc3csc(=N)n3O)C2SC1 (stereo not drawn) [Example 1]: 0.1

Proceeding to the next molecule to report its MIC.
I am curious: what MIC value has been reported for Cn1nnnc1SCC1=C(C(=O)O)N2C(=O)C(NC(=O)Cc3csc(=N)n3O)C2SC1 (stereo not drawn) [Example 5] ? 0.05

###

- Tested on: K. pneumoniae DT
- Test: Minimum Inhibitory Concentration, agar dilution, K. pneumoniae DT
- Format: cell-based
- Condition: Klebsiella pneumoniae, read-out: Minimum Inhibitory Concentration
Below is a list of entries, each paired with its recorded MIC value.

Recorded MIC, per entry:
Cn1c(CO)nnc1SCC1=C(C(=O)[O-])N2C(=O)C(NC(=O)Cc3csc(=N)n3O)[C@H]2SC1.[Na+] (stereo partly shown): ≤ 0.2 µg/mL
N=c1scc(CC(=O)NC2C(=O)N3C(C(=O)[O-])=C(COC(N)=O)CS[C@H]23)n1O.[Na+] (stereo partly shown): 0.2 µg/mL
Cc1nnc(SCC2=C(C(=O)[O-])N3C(=O)C(NC(=O)Cn4cnnn4)[C@H]3SC2)s1.[Na+] (stereo partly shown) [Cefazolin, reference compound]: 1.56 µg/mL

I am curious: what MIC value has been reported for O=C(Cc1cccs1)N[C@@H]1C(=O)N2C(C(=O)[O-])=C(C[n+]3ccccc3)CS[C@H]12 [Cephaloridine, reference compound] ? 3.13 µg/mL
